Attribute: IC50
Target: T1, recombinant LILRB2 ECD (human, UniProt Q8N423 22-460)
T1 construct: also called biotinylated LILRB2 ECD
T1 sequence (Q8N423 22-460 limits assumed): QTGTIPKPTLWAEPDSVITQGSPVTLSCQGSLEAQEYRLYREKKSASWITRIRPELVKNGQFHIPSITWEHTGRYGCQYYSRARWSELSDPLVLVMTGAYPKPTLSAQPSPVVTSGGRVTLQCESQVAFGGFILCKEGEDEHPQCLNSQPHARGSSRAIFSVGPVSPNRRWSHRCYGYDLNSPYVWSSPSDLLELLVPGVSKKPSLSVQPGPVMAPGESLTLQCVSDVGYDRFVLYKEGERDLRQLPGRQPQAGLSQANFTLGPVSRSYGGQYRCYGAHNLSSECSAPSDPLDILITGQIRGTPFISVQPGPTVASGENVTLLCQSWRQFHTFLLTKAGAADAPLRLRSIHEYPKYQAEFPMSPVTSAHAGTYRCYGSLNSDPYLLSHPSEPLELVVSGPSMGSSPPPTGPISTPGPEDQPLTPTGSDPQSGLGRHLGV
Assay: ELISA, LILRB2 ECD binding to HLA-G-Fc

Binder | IC50 (nM)
A-016 (antibody, V domains shown, tested as IgG) VH: QVQLVQSGAEVKKPGSSVKVSCKASGGTFSSYAFNWVRQAPGQGLEWMGSIIPIFKTANYAQKFQGRVTITADESTSTAYMELSSLRSEDTAVYYCAKDLGTYSSGWPYYYGMDVWGQGTTVTVSS VL: SYELTQPPSVSVSPGQTASITCSGDKLGDKYASWYQQKPGQSPVLVIYQDSKRPSGIPERFSGSNSGNTATLTISGTQAEDEADYYCQSTTHTSFVFGGGTKLTVL | 5.1
A-017 (antibody, V domains shown, tested as IgG) VH: QVQLVQSGAEVKKPGSSVKVSCKASGGTFSSYAISWVRQAPGQGLEWMGGIIPYFSLANYAPKFQGRVTITADESTSTAYMELSSLRSEDTAVYYCAKDLGTYSSGWPYYYGMDVWGQGTTVTVSS VL: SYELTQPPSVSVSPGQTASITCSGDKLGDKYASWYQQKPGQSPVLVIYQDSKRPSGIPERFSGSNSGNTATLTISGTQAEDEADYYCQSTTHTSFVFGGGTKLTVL | 4.4
